Overview of reported melting point across a group of compounds:
Where a name gives a salt, the structure may show the parent alone.

COMPOUND	melting point
CN(CCN1CCN(c2cccc3c2OCCO3)CC1)c1cnn(C)c(=O)c1Cl [Example 17]	114 to 116 °C
O=c1cc(NCCN2CCN(c3cc(Cl)cc4c3OCCO4)CC2)cn[nH]1 [Example 11]	115 to 117 °C
CN(CCN1CCN(c2cccc3c2OCCO3)CC1)c1cnn(C)c(=O)c1 (as salt: hydrochloride) [Example 16]	249 to 251 °C
CC(C)(C)n1ncc(Cl)c(NCCN2CCN(c3cccc4c3OCCO4)CC2)c1=O [Example 8]	177 to 178 °C
Cn1ncc(NCCN2CCN(c3cccc4c3OCCO4)CC2)cc1=O [Example 14]	188 to 190 °C
O=c1[nH]ncc(Cl)c1NCCCN(CCOc1cccc2c1OCCO2)Cc1ccccc1 (as salt: hydrochloride) [Example 3]	207 to 209 °C
O=c1[nH]ncc(NCCN2CCN(c3cccc4c3OCCO4)CC2)c1Cl [Example 5]	217 to 219 °C
O=c1[nH]nccc1NCCCNCCOc1cccc2c1OCCO2 (as salt: hydrochloride) [Example 9]	203 to 204 °C
O=c1cc(NCCN2CCN(c3cccc4c3OCCO4)CC2)cn[nH]1 [Example 10]	244 to 246 °C
O=c1cc(NCCCN2CCN(c3cccc4c3OCCO4)CC2)cn[nH]1 [Example 12]	158 to 160 °C
O=c1cc(NCCNCCOc2cccc3c2OCCO3)cn[nH]1 [Example 13]	81 to 83 °C
CCCN(CCCNc1c(Cl)cn[nH]c1=O)CCOc1cccc2c1OCCO2 [Example 2]	87 to 89 °C

---

System: male Wistar rats
Experiment: Effects on blood pressure, radiotelemetry in conscious rats
Details: test compound compared to placebo, mean arterial blood pressure for 6 hours after treatment
OBSERVED_PROPERTY: Results of statistical evaluation

STRUCTURE_SMILES	SYSTEM_UNDER_TEST	OBSERVED_PROPERTY	RESULT
CN(CCN1CCN(c2cccc3c2OCCO3)CC1)c1cnn(C)c(=O)c1	male Wistar rats	Results of statistical evaluation	N.S.
O=c1cc(NCCN2CCN(c3cc(Cl)cc4c3OCCO4)CC2)cn[nH]1	male Wistar rats	Results of statistical evaluation	N.S.
Cn1ncc(NCCN2CCN(c3cccc4c3OCCO4)CC2)c(Cl)c1=O.O	male Wistar rats	Results of statistical evaluation	N.S.
O=c1cc(NCCCN2CCN(c3cccc4c3OCCO4)CC2)cn[nH]1	male Wistar rats	Results of statistical evaluation	N.S.
CC(C)(C)n1ncc(Cl)c(NCCN2CCN(c3cccc4c3OCCO4)CC2)c1=O	male Wistar rats	Results of statistical evaluation	N.S.

---

System: male Wistar rats
Assay: Effects on blood pressure, radiotelemetry in conscious rats
Details: mean arterial blood pressure for 6 hours after oral treatment
Entries and their Mean blood pressure after treatment with test compound (mmHg), Mean values follow.
OBSERVED_PROPERTY: Mean blood pressure after treatment with test compound (mmHg), Mean

COMPOUND	SYSTEM_UNDER_TEST	RESULT_NUMBER
CN(CCN1CCN(c2cccc3c2OCCO3)CC1)c1cnn(C)c(=O)c1 [Example 16]	male Wistar rats	105.2
Cn1ncc(NCCN2CCN(c3cccc4c3OCCO4)CC2)c(Cl)c1=O.O [Example 6]	male Wistar rats	106.3
O=c1cc(NCCN2CCN(c3cc(Cl)cc4c3OCCO4)CC2)cn[nH]1 [Example 11]	male Wistar rats	101.5
O=c1cc(NCCCN2CCN(c3cccc4c3OCCO4)CC2)cn[nH]1 [Example 12]	male Wistar rats	89.9
CC(C)(C)n1ncc(Cl)c(NCCN2CCN(c3cccc4c3OCCO4)CC2)c1=O [Example 8]	male Wistar rats	95.4
